Method summary: viability loss in BJeLR fibroblasts, dose response, BJeLR cells, dry powder, set 2 (AID 493053)
Run parameters: BJeLR fibroblasts viability, Alamar Blue fluorescence, 48 h; at 48 µM (top of the series)
Quick reference for activity change, negative = viability loss among some compounds
Express your answer in %, writing the number without its unit.

chemical_smiles=CC(=O)Nc1c(C(=O)N2CCN(C(c3ccccc3)c3ccccc3)CC2)noc1C value_measured=11.2

INPUT: What activity change, negative = viability loss value was documented for this compound, CC(C)c1onc(C(=O)N2CCN(C(c3ccccc3)c3ccccc3)CC2)c1[N+](=O)[O-] ?
OUTPUT: 2.95

INPUT: What activity change, negative = viability loss value was documented for this compound, Cc1onc(C(=O)N2CCN(C(c3ccccc3)c3ccccc3)CC2)c1N ?
OUTPUT: 10.4

INPUT: What activity change, negative = viability loss value was documented for this compound, O=C(c1noc2ccccc12)N1CCN(C(c2ccccc2)c2ccccc2)CC1 ?
OUTPUT: 3.47

###

Method summary: viability loss in BJeLR fibroblasts, dose response, BJeLR cells, dry powder, set 2 (AID 493053)
Run parameters: BJeLR fibroblasts viability, Alamar Blue fluorescence, 48 h; at 48 µM (top of the series)
Property name: activity change, negative = viability loss (%)
Express your answer in %, writing the number without its unit.

chemical_smiles=Cc1onc(C(=O)N2CCN(C(c3ccccc3)c3ccccc3)CC2)c1Br value_measured=11.7
chemical_smiles=Cc1oc(C)c(C(=O)N2CCN(C(c3ccccc3)c3ccccc3)CC2)c1C value_measured=12.2
chemical_smiles=Cc1onc(C(=O)N2CCN(C(c3ccccn3)c3ccccn3)CC2)c1[N+](=O)[O-] value_measured=9.75

Turning to the following compound.
INPUT: What activity change, negative = viability loss value was documented for this compound, Cc1onc(C(=O)N2CCN(C(c3ccccc3)c3ccccc3)CC2)c1C ?
OUTPUT: 15.3

###

Method summary: viability loss in BJeLR fibroblasts, dose response, BJeLR cells, dry powder, set 2 (AID 493053)
Run parameters: BJeLR fibroblasts viability, Alamar Blue fluorescence, 48 h; at 68 µM (top of the series)
Quick reference for activity change, negative = viability loss among some compounds
Express your answer in %, writing the number without its unit.

chemical_smiles=Cc1onc(C(=O)NCc2ccc(F)cc2)c1[N+](=O)[O-] unit_descriptor=% value_measured=-1.57
chemical_smiles=Cc1onc(C(=O)N2CCOCC2)c1[N+](=O)[O-] unit_descriptor=% value_measured=-1.92
chemical_smiles=COc1ccccc1N1CCN(C(=O)c2noc(C)c2[N+](=O)[O-])CC1 unit_descriptor=% value_measured=-5.96
chemical_smiles=Cc1cc(C(=O)N2CCN(Cc3ccccc3)CC2)no1 unit_descriptor=% value_measured=4.49

Turning to the following compound.
INPUT: What activity change, negative = viability loss value was documented for this compound, CCOC(=O)N1CCN(C(=O)c2noc(C)c2[N+](=O)[O-])CC1 ?
OUTPUT: -2.12

###

Method summary: viability loss in BJeLR fibroblasts, dose response, BJeLR cells, dry powder, set 2 (AID 493053)
Run parameters: BJeLR fibroblasts viability, Alamar Blue fluorescence, 48 h; at 48 µM (top of the series)
Quick reference for activity change, negative = viability loss among some molecules
Express your answer in %, writing the number without its unit.

chemical_smiles=O=[N+]([O-])c1ccc(CN2CCN(C(c3ccccc3)c3ccccc3)CC2)o1 value_measured=2.87
chemical_smiles=Cc1onc(C(=O)N2CCN(C(c3ccncc3)c3ccncc3)CC2)c1[N+](=O)[O-] value_measured=8.19
chemical_smiles=O=C(c1ccc([N+](=O)[O-])o1)N1CCCN(C(c2ccccc2)c2ccccc2)CC1 value_measured=-4.17
chemical_smiles=Cc1onc(C(=O)N2CCN(C(c3ccccc3)c3ccccc3)CC2)c1NS(C)(=O)=O value_measured=15.2

Turning to the following molecule.
INPUT: What activity change, negative = viability loss value was documented for this molecule, Cc1ccc(C(=O)N2CCN(C(c3ccccc3)c3ccccc3)CC2)c([N+](=O)[O-])c1 ?
OUTPUT: 14.9
